Below are AC50 values measured for Gamma-aminobutyric acid receptor subunit alpha-1 (Rattus norvegicus, UniProt P62813).

Record excerpt, results attached:
molecule	target_entity	measured
O=[N+]([O-])c1ccc(O)c2ncccc12	Gamma-aminobutyric acid receptor subunit alpha-1 (Rattus norvegicus, UniProt P62813)	> 30 µM
CC(C)Cc1ccc(C(C)C(=O)O)cc1 (stereo not given)	Gamma-aminobutyric acid receptor subunit alpha-1 (Rattus norvegicus, UniProt P62813)	> 10 µM
O=C(O)c1ccccc1Nc1cc(Cl)ccc1C(=O)O	Gamma-aminobutyric acid receptor subunit alpha-1 (Rattus norvegicus, UniProt P62813)	> 30 µM
Nc1ncn([C@H]2C[C@H](O)[C@@H](CO)O2)c(=O)n1	Gamma-aminobutyric acid receptor subunit alpha-1 (Rattus norvegicus, UniProt P62813)	> 30 µM
Nc1cc(-c2ccncc2)c[nH]c1=O	Gamma-aminobutyric acid receptor subunit alpha-1 (Rattus norvegicus, UniProt P62813)	> 10 µM
CC(C(=O)O)c1ccc(CC2CCCC2=O)cc1 (stereo not given)	Gamma-aminobutyric acid receptor subunit alpha-1 (Rattus norvegicus, UniProt P62813)	> 30 µM
C#CCOc1ccc(N)cc1C(=O)NCCCC [PARSALMIDE]	Gamma-aminobutyric acid receptor subunit alpha-1 (Rattus norvegicus, UniProt P62813)	> 30 µM
CC(C)(C)C(=O)OCC(=O)[C@H]1CC[C@H]2[C@@H]3CCC4=CC(=O)CC[C@]4(C)[C@H]3CC[C@]12C [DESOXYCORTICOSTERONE PIVALATE]	Gamma-aminobutyric acid receptor subunit alpha-1 (Rattus norvegicus, UniProt P62813)	> 10 µM
COc1ccccc1Oc1c(NS(=O)(=O)c2ccc(C(C)(C)C)cc2)nc(-c2ncccn2)nc1OCCO	Gamma-aminobutyric acid receptor subunit alpha-1 (Rattus norvegicus, UniProt P62813)	> 10 µM

Now let's try a different one.
Sample "CCN(CC)CCN1C(=O)CN=C(c2ccccc2F)c2cc(Cl)ccc21" ; AC50 observed: > 10 µM
